- target_system: Recombinant human JAK1 catalytic domain (Homo sapiens (Human), UniProt P23458)
- Sequence (P23458 850-1154): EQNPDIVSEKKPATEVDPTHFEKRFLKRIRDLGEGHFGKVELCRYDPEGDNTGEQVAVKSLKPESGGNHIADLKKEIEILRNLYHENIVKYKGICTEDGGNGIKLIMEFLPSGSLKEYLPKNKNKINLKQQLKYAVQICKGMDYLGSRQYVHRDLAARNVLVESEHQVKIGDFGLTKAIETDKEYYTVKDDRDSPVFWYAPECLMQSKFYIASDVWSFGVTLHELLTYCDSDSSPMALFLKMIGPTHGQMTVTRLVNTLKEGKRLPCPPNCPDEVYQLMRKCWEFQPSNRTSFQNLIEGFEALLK
- run_description: JAK1 inhibition assay
- Type: biochemical
- measurement_parameters: semi-quantitative score
pIC50: −log10 of the molar value.
endpoint_label: pIC50

Give pIC50 for each of the items listed below.
1. O=C(Nc1nc2cccc(-c3ccc(N4CCCCC4)nc3)n2n1)C1CC1
2. COCC(C)N(Cc1ccc(F)cc1)C(=O)c1ccc(-c2cccc3nc(NC(=O)C4CC4)nn23)cc1 (stereo not shown)
3. Cc1n[nH]c(C)c1CCOc1ccc(-c2cccc3nc(NC(=O)C4CC4)nn23)cc1
4. O=C(Nc1nc2cccc(-c3ccc(CN4CCC(F)CC4)cc3)n2n1)C1CC1
5. C[C@@H]1CN(Cc2ccc(-c3cccc4nc(NC(=O)C5CC5)nn34)cc2)C[C@H](C)O1
6. O=C(Nc1nc2cccc(-c3ccc(S(=O)(=O)Cc4ccccn4)cc3)n2n1)C1CC1
7. Cc1ccc(C(N)=O)cc1NCc1ccc(-c2cccc3nc(NC(=O)C4CC4)nn23)cc1
8. CC(=O)N1CCN(Cc2ccc(-c3cccc4nc(NC(=O)C5CC5)nn34)cc2)CC1

## Result
["6.30 to 7.00", "6.30 to 7.00", "> 7.00", "> 7.00", "6.30 to 7.00", "6.30 to 7.00", "> 7.00", "6.30 to 7.00"]

I would be grateful if you could provide pIC50 for each of the following entries.
1. O=C(CCOc1ccccc1)Nc1ccc(-c2cccc3nc(NC(=O)C4CC4)nn23)cc1
2. COc1ccc(NCc2ccc(-c3cccc4nc(NC(=O)C5CC5)nn34)cc2)cn1
3. Cn1ccc(COc2ccc(-c3cccc4nc(NC(=O)C5CC5)nn34)cc2)n1
4. O=C(Nc1nc2cccc(-c3ccc(N4CCNCC4)nc3)n2n1)C1CC1
5. O=C(Nc1cccnn1)c1ccc(-c2cccc3nc(NC(=O)C4CC4)nn23)cc1
6. O=C(Nc1nc2cccc(-c3ccnc(N4CCC(CCc5ccccc5)CC4)c3)n2n1)C1CC1
7. CC(C)(C)OC(=O)NC1CCN(Cc2ccc(-c3cccc4nc(NC(=O)C5CC5)nn34)cc2)CC1
8. CCN(CC)C1CCN(C(=O)c2ccc(-c3cccc4nc(NC(=O)C5CC5)nn34)cc2)C1 (stereo not shown)

## Result
["> 7.00", "> 7.00", "> 7.00", "< 6.00", "> 7.00", "< 6.00", "> 7.00", "6.30 to 7.00"]
